- EXPERIMENT_DESCRIPTION: RP-HPLC hydrophobicity assay (Symmetry C18 column, methanol/phosphate-buffered saline)
- Type: physicochemical
- CONDITION_CONTEXT: extrapolated to pure phosphate-buffered saline, 25 °C
Please go through the items and note down their log kw C18, chromatographic parameter of hydrophobicity obtained by RP-HPLC.
Could you keep your reply to the number by itself?

[Q] Given Nc1nc2ncc(CNc3ccc(C(=O)N[C@@H](CCC(=O)O)C(=O)O)cc3)nc2c(=O)[nH]1 , state its recorded log kw C18, chromatographic parameter of hydrophobicity obtained by RP-HPLC.
[A] 0.99

[Q] Next: Cn1cnc([N+](=O)[O-])c1Sc1ncnc2nc[nH]c12
[A] 1.34

[Q] Next: Nc1nc2nc[nH]c2c(=S)[nH]1
[A] 0.32

[Q] Next: Sc1ncnc2nc[nH]c12
[A] 0.45

====

- EXPERIMENT_DESCRIPTION: RP-TLC hydrophobicity assay (RP-18 plates, methanol/phosphate-buffered saline)
- Format: physicochemical
- CONDITION_CONTEXT: extrapolated to pure phosphate-buffered saline
Please go through the items and note down their RMw, chromatographic parameter of hydrophobicity obtained by RP-TLC.

[Q] Given Sc1ncnc2nc[nH]c12 , state its recorded RMw, chromatographic parameter of hydrophobicity obtained by RP-TLC.
[A] 0.23

[Q] Next: Cn1cnc([N+](=O)[O-])c1Sc1ncnc2nc[nH]c12
[A] 1.41

[Q] Next: Nc1nc2nc[nH]c2c(=S)[nH]1
[A] 0.21

[Q] Next: Nc1nc2ncc(CNc3ccc(C(=O)N[C@@H](CCC(=O)O)C(=O)O)cc3)nc2c(=O)[nH]1
[A] 0.57

====

- System: α1-acid glycoprotein (AGP)
- EXPERIMENT_DESCRIPTION: Protein binding assay, AGP-HPLC (Chiralpak-AGP column)
- CONDITION_CONTEXT: phosphate buffer pH 7.0/iso-propanol gradient, 25 °C
ENDPOINT: PPBAGP, percentage of analyte bound to α1-acid glycoprotein (AGP) obtained by AGP-HPLC (%)
Express the result in % but write the number alone.

[Q] Given Sc1ncnc2nc[nH]c12 , state its recorded PPBAGP, percentage of analyte bound to α1-acid glycoprotein (AGP) obtained by AGP-HPLC.
[A] 22.15

[Q] Next: Nc1nc2ncc(CNc3ccc(C(=O)N[C@@H](CCC(=O)O)C(=O)O)cc3)nc2c(=O)[nH]1
[A] 3.45

[Q] Next: Cn1cnc([N+](=O)[O-])c1Sc1ncnc2nc[nH]c12
[A] 75.96

[Q] Next: Nc1nc2nc[nH]c2c(=S)[nH]1
[A] 45.96

====

Please go through the items and note down their log kw IAM, chromatographic parameter of lipophilicity obtained by IAM-HPLC.
- EXPERIMENT_DESCRIPTION: Phospholipid binding assay (IAM-HPLC, IAM.PC.DD2 column)
- Assay type: physicochemical
- CONDITION_CONTEXT: phosphate-buffered saline pH 7.4 without organic modifier, 25 °C

[Q] Given Cn1cnc([N+](=O)[O-])c1Sc1ncnc2nc[nH]c12 , state its recorded log kw IAM, chromatographic parameter of lipophilicity obtained by IAM-HPLC.
[A] 0.68

[Q] Next: Nc1nc2nc[nH]c2c(=S)[nH]1
[A] 0.03

[Q] Next: Sc1ncnc2nc[nH]c12
[A] −0.19

[Q] Next: Nc1nc2ncc(CNc3ccc(C(=O)N[C@@H](CCC(=O)O)C(=O)O)cc3)nc2c(=O)[nH]1
[A] −0.26
